Assay overview: Solubility of representative compounds in various solvent systems
Assay type: physicochemical
Applied conditions: organic solvent or mixture; Ethanol, 22° C.
Attribute measured: solubility (mg/mL)

* CCCCCCCCCCCCS(=O)(=O)c1ccc(O)c(C(=O)Nc2cccc(C(F)(F)F)c2)c1 [TMF-12] | 13.6

###

Assay overview: Solubility of representative compounds in various solvent systems
Assay type: physicochemical
Applied conditions: organic solvent or mixture; Propylene Glycol @ 20° C.
Attribute measured: solubility (µg/mL)

* CCCCCCCCCCS(=O)(=O)c1ccc(O)c(C(=O)Nc2ccc(C#N)cc2)c1 | 810
* CCCCCCCCCCS(=O)(=O)c1ccc(O)c(C(=O)Nc2cccc(C(F)(F)F)c2)c1 | 1700
* CCCCCCCCCCCCS(=O)(=O)c1ccc(O)c(C(=O)Nc2cccc(C(F)(F)F)c2)c1 | 6660
* CCCCCCCCCCS(=O)(=O)c1ccc(O)c(C(=O)Nc2cccc(C#N)c2)c1 | 1940
* CCCCCCCC(=O)c1ccc(O)c(C(=O)Nc2cccc(C(F)(F)F)c2)c1 [Salifluor, reference compound] | 550
